Field: survival. Provide a value for each of the molecules that follow.
# Test system: DeltatarO mutant
# TEST_NAME: S. aureus survival, RN4220 and DeltatarO strains – OD600, teichoic acid synthesis inhibitors, primary screen (AID 463173)
# SETUP_CONDITIONS: S. aureus RN4220 wild type/DeltatarO growth, OD600, 18 h, hits give low values, screened at 18.75 µg/mL (by protocol)
Among all 52,000 compounds or so, about 4,300 (8.3%) were called active. What follows is part of a selection rich in actives, with near analogues and random picks from the rest.
Give bare numbers, in %.

In the examples that follow, each entry is paired with its recorded survival.
Using the record for `CCOC(=O)c1ccc(NS(=O)(=O)c2ccc(Br)s2)cc1` , report its survival.
38

Using the record for `COc1cc(NS(=O)(=O)c2cnc(N)nc2)cc(OC)c1` , report its survival.
76

Using the record for `CC(=O)c1ccc(NS(=O)(=O)c2ccc(-c3cc(C)no3)s2)cc1` , report its survival.
122

Using the record for `CC(=O)c1ccc(NS(=O)(=O)c2cnc(N)nc2)cc1` , report its survival.
6

Using the record for `Nc1ncc(S(=O)(=O)Nc2ccc(OC(F)(F)F)cc2)cn1` , report its survival.
79

Further cases:
Using the record for `CCOC(=O)c1ccc(NS(=O)(=O)c2cn(C)c(C)n2)cc1` , report its survival.
69
